biological target: Abl (T315I) (Homo sapiens, UniProt P00519, T315I); construct: purchased Upstate; experiment: Abl (T315I) Kinase Assay (KinaseGlo luminescent detection of residual ATP); type: biochemical; details: Abl (T315I) IC50 (nM), Abl (T315I) (Upstate, 17 ng/well), Abltide 100 uM, ATP 500 nM, 60 minutes at 37° C.
Structures can show the parent of a compound that is named as a salt.
Rule: IC50 below 200 nM gives True. Equal to or above 200 nM gives False.

Below are worked cases with known answers.
O=S(=O)(c1ccc(Nc2ncc(/C=C/c3cccc(O)c3)cn2)c(C(F)(F)F)c1)N1CCNCC1 : False
O=S(=O)(c1ccc(Nc2ncc(/C=C/c3cccc4[nH]ncc34)cn2)cc1)N1CCCNCC1 : True
C[C@H](N)C(=O)N1CCC(S(=O)(=O)c2ccc(Nc3ncc(/C=C/c4cccc5[nH]ccc45)cn3)cc2)CC1 [hydrochloride] : False
Cc1cc(S(=O)(=O)N2CCNCC2)ccc1Nc1ncc(/C=C/c2cccc(O)c2)cn1 : False
O=S(=O)(NCCN1CCCC1)c1ccc(Nc2ncc(/C=C/c3cc(O)ccc3Cl)cn2)cc1 : False

Prompt: In plain terms, does "NC1CCN(S(=O)(=O)c2ccc(Nc3ncc(/C=C/c4cccc5[nH]ncc45)cn3)cc2)CC1" come in under 200 nM for IC50?
Completion: True

Prompt: For this molecule, is IC50 lower than 200 nM? O=S(=O)(c1ccc(Nc2ncc(/C=C/c3ccccc3)cn2)cc1NCCO)N1CCNCC1 [trifluoroacetic acid salt]
Completion: False

Prompt: Quick check: does "CN1CCN(C(=O)c2ccc(Nc3ncc(/C=C/c4cccc5[nH]ccc45)cn3)cc2)CC1" have IC50 under 200 nM?
Completion: False

---

target: Abl (T315I) (Homo sapiens, UniProt P00519, T315I); construct: purchased Upstate; assay: Abl (T315I) Kinase Assay (KinaseGlo luminescent detection of residual ATP); type: biochemical; settings: Abl (T315I) IC50 (nM), Abl (T315I) (Upstate, 17 ng/well), Abltide 100 uM, ATP 500 nM, 60 minutes at 37° C.
TEST READOUT: IC50 (nM)
Hi! Could you send only the number? It should be in nM, unit omitted.

Worked cases, answers included:
NC1CCN(S(=O)(=O)c2ccc(Nc3ncc(/C=C/c4cccc5[nH]ccc45)cn3)cc2)CC1 : 347
O=S(=O)(c1ccc(Nc2ncc(/C=C/c3ccc4[nH]nnc4c3)cn2)cc1)C1CCNCC1 : 467
O=S(=O)(c1ccc(Nc2ncc(/C=C/c3ccc(-c4c[nH]cn4)cc3)cn2)cc1)N1CCNCC1 : 5040
Nc1nc2ccc(/C=C/c3cnc(Nc4ccc(SCCN5CCOCC5)cc4)nc3)cc2s1 : 1200

Moving on to another compound below.
Prompt: Identify measured IC50 associated with "Nc1nc2ccc(/C=C/c3cnc(Nc4ccc(S(=O)(=O)N5CCNCC5)cc4)nc3)cc2s1"
Completion: 38

---

This listing pairs compounds with measured log10 of IC50.
target: Abl kinase (Homo sapiens); experiment: biochemical; conditions: Abl IC50 (nM), Abl kinase (Invitrogen, 20 ng/well), Abltide 100 μM, ATP 500 nM, 37° C. for 60 minutes, top concentration 10 uM
// do not treat as linear: log10 of IC50, unit nM

Worked cases, answers included:
CN1CCN(C(=O)c2ccc(Nc3ncc(/C=C/c4cccc5[nH]ccc45)cn3)cc2)CC1 : 1.61
C(=C\c1cccc2[nH]ccc12)/c1cnc(Nc2cccc(N3CCNCC3)c2)nc1 : 1.93
O=S(=O)(c1ccc(Nc2ncc(/C=C/c3cc(O)ccc3Cl)cn2)cc1)C1CCNCC1 : 0.58
O=C(Nc1nc2ccc(/C=C/c3cnc(Nc4ccc(S(=O)(=O)N5CCNCC5)cc4)nc3)cc2s1)c1cccc(C(F)(F)F)c1 : 3.71
Nc1nc2ccc(/C=C/c3cnc(Nc4ccc(C(=O)N5CCNCC5)cc4)nc3)cc2s1 : 2.56
O=S(=O)(c1cccc(Nc2ncc(/C=C/c3cccc4[nH]ccc34)cn2)c1)N1CCNCC1 : 2.39

Prompt: Answer with reported log10 of IC50 of "Nc1nc2ccc(/C=C/c3cnc(Nc4ccc(S(=O)(=O)N5CCC(CO)CC5)cc4)nc3)cc2s1"
Completion: 2.64

Prompt: Give the reported log10 of IC50 for this compound. "O=S(=O)(c1ccc(Nc2ncc(/C=C/c3cccc4[nH]ncc34)cn2)cc1)N1CCCNCC1"
Completion: 1.08

---

biological target: Abl kinase (Homo sapiens, UniProt P00519); test: biochemical; details: Abl IC50 (nM), Abl kinase (Invitrogen, 20 ng/well), Abltide 100 μM, ATP 500 nM, 37° C. for 60 minutes, top concentration 10 uM
Structures can show the parent of a compound that is named as a salt.
Returns: string. Value is T if measured IC50 is below 50 nM, and F if it is greater than or equal to it.

O=S(=O)(CC1CCNCC1)c1ccc(Nc2ncc(/C=C/c3cccc(O)c3)cn2)cc1 : T
O=S(=O)(CCCN1CCCC1)c1ccc(Nc2ncc(/C=C/c3cccc4[nH]ncc34)cn2)cc1 : T
Nc1nc2ccc(/C=C/c3cnc(Nc4ccc(S(=O)(=O)NC5CCNCC5)cc4)nc3)cc2s1 : T

Prompt: Quick check: does "O=C(Nc1cccc(/C=C/c2cnc(Nc3cccnc3)nc2)c1)c1cccc(C(F)(F)F)c1" have IC50 under 50 nM?
Completion: F

Prompt: Determine whether this compound shows IC50 lower than 50 nM (ties excluded): CN(C1CCNCC1)S(=O)(=O)c1ccc(Nc2ncc(/C=C/c3ccc4nc(N)sc4c3)cn2)cc1 [Hydrochloride]
Completion: F

Prompt: # strict comparison: is reported IC50 < 50 nM? input = "O=S(=O)(c1ccc(Nc2ncc(/C=C/c3cccc4[nH]ccc34)cn2)cc1)N1CCNCC1"
Completion: T

Prompt: Problem: For the compound "Nc1noc2c(/C=C/c3cnc(Nc4ccc(S(=O)(=O)N5CCNCC5)c(NCCO)c4)nc3)cccc12" , is IC50 under 50 nM?
Completion: T

Prompt: Just wondering, is IC50 of "O=S(=O)(NCCN1CCCC1)c1ccc(Nc2ncc(/C=C/c3cccc4[nH]ccc34)cn2)cc1" below 50 nM?
Completion: T

Prompt: Here's an entry: O=S(=O)(c1ccc(Nc2ncc(/C=C/c3cccc(C(F)(F)F)c3)cn2)cc1)C1CCNCC1 [TFA] . Is its IC50 below 50 nM?
Completion: F

---

target: Abl (T315I) (Homo sapiens, UniProt P00519, T315I); construct: purchased Upstate; test: Abl (T315I) Kinase Assay (KinaseGlo luminescent detection of residual ATP); assay type: biochemical; conditions: Abl (T315I) IC50 (nM), Abl (T315I) (Upstate, 17 ng/well), Abltide 100 uM, ATP 500 nM, 60 minutes at 37° C.
Counter-ions that a name gives are not always drawn.
Collected IC50 values appear next to each entry.
Write the figure, then the unit, nothing else.

Known IC50 results, listed for orientation:
O=S(=O)(NC1CCCNC1)c1ccc(Nc2ncc(/C=C/c3cccc(O)c3)cn2)cc1 (stereo not shown) [Hydrochloride] : 60 nM
Cc1ccc(/C=C/c2cnc(Nc3ccc(S(=O)(=O)C4CCNCC4)cc3)nc2)c2cc[nH]c12 [Hydrochloride] : 167 nM
O=S(=O)(c1ccc(Nc2ncc(/C=C/c3ccc(-c4cn[nH]c4)cc3)cn2)cc1)N1CCNCC1 : 1230 nM
O=S(=O)(c1ccc(Nc2ncc(/C=C/c3cccc4[nH]ncc34)cn2)cc1)C1CCNCC1 [trifluoroacetic acid salt] : 29 nM
Cc1nc(Nc2ccc(S(=O)(=O)C3CCNCC3)cc2)ncc1/C=C/c1cccc(O)c1 [hydrochloride] : 65 nM
O=C(Nc1nc2ccc(/C=C/c3cnc(Nc4ccc(S(=O)(=O)N5CCNCC5)cc4)nc3)cc2s1)c1cccc(C(F)(F)F)c1 : 5600 nM
Nc1cccc(/C=C/c2cnc(Nc3ccc(S(=O)(=O)C4CCNCC4)cc3)nc2)c1 [Hydrochloride] : 561 nM
CN(C)CCN(C1CCNCC1)S(=O)(=O)c1ccc(Nc2ncc(/C=C/c3cccc4[nH]ccc34)cn2)cc1 : 182 nM

Prompt: Complete the entry with IC50 for "Nc1nc2ccc(/C=C/c3cnc(Nc4ccc(C(=O)N5CCNCC5)cc4)nc3)cc2s1"
Completion: 87 nM

Prompt: Hello, please tell me recorded IC50 for this one: O=S(=O)(c1ccc(Nc2ncc(/C=C/c3ccc(Cl)c4[nH]ccc34)cn2)cc1)C1CCNCC1 [Hydrochloride]
Completion: 156 nM

Prompt: Retrieve IC50 measured for "Nc1noc2c(/C=C/c3cnc(Nc4ccc(S(=O)(=O)N5CCNCC5)c(NCCO)c4)nc3)cccc12" and print it.
Completion: 1860 nM

Prompt: Please give measured IC50 of the following entry: C=Cc1cnc(Nc2ccc(S(=O)(=O)C3CCNCC3)cc2)nc1 [trifluoroacetate]
Completion: 368 nM

Prompt: Consider the compound O=S(=O)(c1ccc(Nc2ncc(/C=C/c3cccc(C(F)(F)F)c3)cn2)cc1)C1CCNCC1 [TFA] . State its measured IC50.
Completion: 3200 nM

Data provenance is patent US20070149508A1.
